- Experiment Description: NCI Yeast Anticancer Drug Screen. Data for the bub3 strain (AID 167)
- Settings: S. cerevisiae bub3 mutant strain, at 50.0 µM, stronger effect = higher value
The panel holds about 79,000 compounds, 15% with a hit somewhere; the sample as a whole holds those more often. Where a SMILES comes first, the peptide text is derived from it. The star is where a group is joined. Cbz = O=C(OCc1ccccc1)*
growth inhibition values by entry

Compound: O=C1C2=C(Nc3cc(Cl)ccc3N2)OC1c1ccc(C2OC3=C(Nc4ccc(Cl)cc4N3)C2=O)cc1 (centres undefined)
Unit Info: %
growth inhibition: -7.3
//
Compound: C1=Cc2c3c(c4c(c2C1)C=CC4)C=CC3
Unit Info: %
growth inhibition: -1.15
//
Compound: O=S(=O)(Cl)C1c2ccccc2-c2ccccc21
Unit Info: %
growth inhibition: 23.2
//
Compound: O=C=Nc1ccc([N+](=O)[O-])cc1
Unit Info: %
growth inhibition: 32.9
//
Compound: Cc1ccc(NC(=S)SCc2ccc(Cl)c(Cl)c2)cc1Br
Unit Info: %
growth inhibition: 0.3
//
Compound: CC1=C2CCOC2=Nc2ccccc2O1
Unit Info: %
growth inhibition: -14.6
//
Compound: Cc1nc2ccc(I)cc2c(=O)n1-c1ccc(N=Cc2ccc(N(C)C)cc2)cc1
Unit Info: %
growth inhibition: -2.9
//
Compound: CC(C)CCNC(=O)CS(=O)(=O)c1ccc(N)cc1
Unit Info: %
growth inhibition: -23.1
//
Compound: COC(=O)C(OC)(OC)C(O)c1ccccc1 (centres undefined)
Unit Info: %
growth inhibition: -9.35
//
Compound: c1ccc2c(c1)-c1ccccc1C2N1CCCC1
Unit Info: %
growth inhibition: -0.85
//
Compound: CCOC(=O)c1c(C)c2c(n1C)CCC(CCC(C)=O)C2=O (centres undefined)
Unit Info: %
growth inhibition: 6.7
//
Compound: O=C(CC1=NC2NN(c3ccccc3)C(=O)C2=C1CC(=O)C(c1ccccc1)c1ccccc1)C(c1ccccc1)c1ccccc1 (centres undefined)
Unit Info: %
growth inhibition: 10.8
//
Compound: Cc1ccc(S(=O)(=O)CN2CCC(=O)c3ccccc32)cc1
Unit Info: %
growth inhibition: 15.4
//
Compound: O=C(Nc1ccc(Cl)cc1)Nc1nnc(-c2ccc(F)cc2)o1
Unit Info: %
growth inhibition: -25
//
Compound: NC(=O)C(=CNC(=S)Nc1cccc(C(F)(F)F)c1)C(N)=O
Unit Info: %
growth inhibition: 5.5
//
Compound: O=[N+]([O-])c1cccc2cnccc12
Unit Info: %
growth inhibition: 5.5
//
Compound: O=[N+]([O-])c1cc(Br)cc2c1nc(NCCO)c1ccccc12
Unit Info: %
growth inhibition: 86.8
//
Compound: Cc1cn(C(=O)NC23CC4CC(CC(C4)C2)C3)c(=O)[nH]c1=O
Unit Info: %
growth inhibition: 10.9
//
Compound: NCC1OC(OC2C(CO)OC(OC3C(O)C(N)CC(N)C3OC3OC(CO)C(O)C(O)C3N)C2O)C(N)C(O)C1O (centres undefined)
Unit Info: %
growth inhibition: 27.6
//
Compound: O=C(CC(CC(=O)Oc1c(Br)cc(Br)cc1C(=O)O)C(=O)Oc1c(Br)cc(Br)cc1C(=O)O)Oc1c(Br)cc(Br)cc1C(=O)O
Unit Info: %
growth inhibition: -24
//
Compound: Nc1cc(C(F)(F)F)cc(C(F)(F)F)c1
Unit Info: %
growth inhibition: -1.4
//
Compound: CN1CCN(C(=S)N(C(=O)c2ccc(Cl)cc2)c2ccccc2)CC1
Unit Info: %
growth inhibition: 4.65
//
Compound: CN(C)C(=S)/N=c1\ssc(=S)n1C1CCCCC1
Unit Info: %
growth inhibition: 25.7
//
Compound: Nc1nc2c(-c3ccc([N+](=O)[O-])cc3)nnn2c2cccc(Cl)c12
Unit Info: %
growth inhibition: -32.5
//
Compound: CCOC(=O)/C(C#N)=C/c1ccnc2ccccc12
Unit Info: %
growth inhibition: -29.1
//
Compound: CCN(CC)CCNC(=O)Cc1cc(O)c2c(c1O)C(=O)c1ccccc1C2=O
Unit Info: %
growth inhibition: 6.1
//
Compound: O=C(/C=C/c1ccccc1)Nc1cc(Cl)ccc1Cl
Unit Info: %
growth inhibition: 31.8
//
Compound: CSc1nc(NC(=O)O)c(N(C(C)=O)C(=O)O)c(=O)n1C
Unit Info: %
growth inhibition: -9.35
//
Compound: Nc1ccc2c(c1)Cc1c-2cc(Cl)c(N)c1Cl
Unit Info: %
growth inhibition: 13.8
//
Compound: CC(=O)c1ccc[cH-]1.[Fe+2].c1cc[cH-]c1
Unit Info: %
growth inhibition: 23.2
//
Compound: COc1ccc(/C=C2\N=C(NN)N=C2Cl)cc1
Unit Info: %
growth inhibition: -0.35
//
Compound: O=C(CNC(=O)C(CSC(c1ccccc1)(c1ccccc1)c1ccccc1)NC(=O)OCc1ccccc1)OCc1ccccc1[N+](=O)[O-] (centres undefined)
Unit Info: %
growth inhibition: -7.05
//
Compound: COC(=O)C(CC(C)C)NC(=O)C(CCCN=C(N)N)NC(=O)OCc1ccccc1 (stereo not drawn) (Cbz-Arg-Leu-OMe; configuration not given here)
Unit Info: %
growth inhibition: -10.3
//
Compound: NCCS/C=C\C(=O)OCc1ccc(Br)cc1
Unit Info: %
growth inhibition: 19.1
//
Compound: Cc1ccc(C(C)(C#N)Nc2ccccc2)cc1 (centres undefined)
Unit Info: %
growth inhibition: -11.2
//
Compound: NC1=NC(=O)C(CC(=O)Nc2ccc(Cl)cc2Cl)S1 (centres undefined)
Unit Info: %
growth inhibition: -5.6
//
Compound: Cc1ccccc1C1OC(=O)c2ccc3ccccc3c21 (centres undefined)
Unit Info: %
growth inhibition: 1.45
//
Compound: O=C1OC(C(O)CO)C(C(O)CO)OC1=O (centres undefined)
Unit Info: %
growth inhibition: -12.3
//
Compound: CN(C)CC1CCC(CN(C)C)C(=O)C1=O (centres undefined)
Unit Info: %
growth inhibition: -31.3
//
Compound: O=C(CN1CCC(O)(c2ccc(F)cc2)CC1)N1CCN(C/C=C/c2ccccc2)CC1
Unit Info: %
growth inhibition: -1.7
//
Compound: CC(=O)c1cccc(NC(=O)c2c(Br)c(Br)c(Br)c(Br)c2C(=O)O)c1
Unit Info: %
growth inhibition: -0.25
//
Compound: S=C(Sc1nc2ccccc2[nH]1)Sc1nc2ccccc2[nH]1
Unit Info: %
growth inhibition: 8.95
//
Compound: CC(C)(C)c1cc(/C=C/c2cc(/C=C/c3cc(C(C)(C)C)c(O)c(C(C)(C)C)c3)c([N+](=O)[O-])cc2[N+](=O)[O-])cc(C(C)(C)C)c1O
Unit Info: %
growth inhibition: 3.65
//
Compound: COc1c(C(=O)O)[nH]c(=O)[nH]c1=O
Unit Info: %
growth inhibition: -14.3

* * *

growth inhibition values by entry
- Experiment Description: NCI Yeast Anticancer Drug Screen. Data for the cln2 rad14 strain (AID 165);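 also: 0% = growth equal to vehicle treated cultures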
- Settings: S. cerevisiae cln2 rad14 strain, at 50.0 µM, stronger effect = higher value
The panel holds about 79,000 compounds, 15% with a hit somewhere; the sample as a whole holds those more often. Calls of active or inactive are those of the source. No stated cut-off is given here; in the data, active means growth inhibition above about 70%; inactive means the rest.
Measured Parameter: growth inhibition

Molecule: Cc1cc(N(CCCCl)CCCCl)ccc1C=Nc1cc(Br)c(O)c(Br)c1
Measured Parameter: growth inhibition
Value: 52.5% (inactive)

Molecule: O=[N+]([O-])c1ccc(SC2=NCCCN2C2CCCCC2)c(Cl)c1
Measured Parameter: growth inhibition
Value: 13.8% (inactive)

Molecule: CN(Cc1ccccc1)C(=O)c1ccccc1C(=O)O
Measured Parameter: growth inhibition
Value: -15.9% (inactive)

Molecule: COc1ccccc1NC(=O)/C(Cc1nc2ccc([N+](=O)[O-])cc2[nH]c1=O)=N\NC(=O)C[N+](C)(C)C
Measured Parameter: growth inhibition
Value: -26.2% (inactive)

Molecule: CCOc1ccc(NC(=O)C(=O)CC(=O)c2sc(NNC(C)=O)nc2C)cc1
Measured Parameter: growth inhibition
Value: 14.4% (inactive)

Molecule: CC(C)CC1NC(=O)CCC(NC(=O)C(Cc2ccc(O)cc2)NC(=O)OCc2ccccc2)C(=O)NC(Cc2ccccc2)C(=O)NC(Cc2ccccc2)NC1=O (stereo not drawn)
Measured Parameter: growth inhibition
Value: 8.6% (inactive)

Molecule: COc1ccc(NC(=O)Cc2cc3ccccc3oc2=O)cc1
Measured Parameter: growth inhibition
Value: -46.3% (inactive)

Molecule: Nc1nc(Cl)nc(Cl)c1N
Measured Parameter: growth inhibition
Value: -23.4% (inactive)

Molecule: COc1ccc(-c2cc(C(=O)O)c3cc4ccccc4cc3n2)cc1Br
Measured Parameter: growth inhibition
Value: 24.3% (inactive)

Molecule: CN(C)C(=O)Nc1cccc(OS(=O)(=O)N(C)C)c1
Measured Parameter: growth inhibition
Value: -18.6% (inactive)

Molecule: CN(CC1CCCCC1=O)CC1CCCCC1=O (stereo not drawn)
Measured Parameter: growth inhibition
Value: -8.8% (inactive)

Molecule: CC(=O)CC(=O)CCC(=O)O
Measured Parameter: growth inhibition
Value: 7.1% (inactive)

Molecule: CC(C)COC(=N)c1ccccc1C1(O)CCCCC1
Measured Parameter: growth inhibition
Value: -18.8% (inactive)

Molecule: NC(=O)C(CCCCNc1c(C(=O)O)cc([N+](=O)[O-])cc1[N+](=O)[O-])NC(=O)c1ccccc1 (stereo not drawn)
Measured Parameter: growth inhibition
Value: -7.95% (inactive)

Molecule: Nc1ccc2[nH]cc(CCC(=O)O)c2c1
Measured Parameter: growth inhibition
Value: -11.6% (inactive)

Molecule: O=C1N(O)C2(C=CCCC2)/C(=N/O)C12CCCCC2 (stereo not drawn)
Measured Parameter: growth inhibition
Value: 11.4% (inactive)

Molecule: O=C1C[C@H]2CCCC[C@@H]2O1
Measured Parameter: growth inhibition
Value: 39.1% (inactive)

Molecule: N=c1ncn(Cc2ccccc2)c2nc[nH]c12
Measured Parameter: growth inhibition
Value: -3.6% (inactive)

Molecule: CCCCOC(=O)c1ccc(OC(=O)Nc2ccccc2)cc1
Measured Parameter: growth inhibition
Value: 7.7% (inactive)

Molecule: C#C/C=C/CC1OC(C(Br)CC)CC(Br)C2CC1O2 (stereo not drawn)
Measured Parameter: growth inhibition
Value: 24.4% (inactive)

Molecule: C/C(=C/c1ccccc1)OC(=O)c1ccccc1
Measured Parameter: growth inhibition
Value: -1.85% (inactive)

Molecule: CC(C)CCCC(C)C1CCC2(C)C3=C(CCC12C)C1(C)CCC(=O)C(C)(C)C1CC3 (stereo not drawn)
Measured Parameter: growth inhibition
Value: 44.5% (inactive)

Molecule: O=C(Nc1ccc(F)cc1)c1ccc(Cl)cc1Cl
Measured Parameter: growth inhibition
Value: 13.7% (inactive)
